- Target system: Elastase (Pseudomonas aeruginosa (strain ATCC 15692 / PAO1 / 1C / PRS 101 / LMG12228))
- Protocol notes: Inhibition of Pseudomonas aeruginosa PAO1 GFP-fused quorum sensing lasB at 10 uM measured every 15 mins up to 12 hrs by GFP reporter gene assay relative to control
So basically: inhibition at 10% or higher? That is True. Lower than 10%? That is False.

{"Mol": "O=C(/C=C/c1ccccc1)Nc1ccc(CC2=CC(=O)OC2=C(Br)Br)cc1", "Category label": "False"}
{"Mol": "O=C(Cc1ccc(F)cc1)Nc1ccc(CC2=CC(=O)OC2=CBr)cc1", "Category label": "True"}
{"Mol": "COc1cc(CC(=O)Nc2ccc(CC3=CC(=O)OC3=CBr)cc2)cc(OC)c1OC", "Category label": "False"}
{"Mol": "O=C(CCc1ccccc1)Nc1ccc(CC2=CC(=O)OC2=C(Br)Br)cc1", "Category label": "True"}
{"Mol": "O=C(Cc1c(Cl)cccc1Cl)Nc1ccc(CC2=CC(=O)OC2=C(Br)Br)cc1", "Category label": "True"}
{"Mol": "COc1ccc(/C=C/C(=O)Nc2ccc(CC3=CC(=O)OC3=C(Br)Br)cc2)cc1", "Category label": "False"}
{"Mol": "O=C1C=C(Br)/C(=C/Br)O1", "Category label": "True"}
{"Mol": "Cc1ccc(CC(=O)Nc2ccc(CC3=CC(=O)OC3=C(Br)Br)cc2)cc1", "Category label": "True"}
{"Mol": "O=C1C=C(Cc2ccc(NC(=O)c3ccco3)cc2)C(=CBr)O1", "Category label": "True"}
{"Mol": "O=C(Cc1ccc(Br)cc1)Nc1ccc(CC2=CC(=O)OC2=C(Br)Br)cc1", "Category label": "True"}
{"Mol": "COc1ccc(CC(=O)Nc2ccc(CC3=CC(=O)OC3=C(Br)Br)cc2)cc1", "Category label": "True"}

----------
- System: Pseudomonas aeruginosa PAO1
- Protocol notes: Inhibition of Pseudomonas aeruginosa PAO1 GFP-fused quorum sensing rhlA at 10 uM measured every 15 mins up to 12 hrs by GFP reporter gene assay relative to control

{"Compound": "O=C(CCc1ccccc1)Nc1ccc(CC2=CC(=O)OC2=C(Br)Br)cc1", "inhibition / %": 19.5}
{"Compound": "O=C1C=C(Cc2ccc(NC(=O)c3ccccc3)cc2)C(=C(Br)Br)O1", "inhibition / %": 20.2}
{"Compound": "COc1ccc(CC(=O)Nc2ccc(CC3=CC(=O)OC3=C(Br)Br)cc2)cc1", "inhibition / %": 13.8}
{"Compound": "Cc1ccc(CC(=O)Nc2ccc(CC3=CC(=O)OC3=CBr)cc2)cc1", "inhibition / %": 18.2}
{"Compound": "O=C1C=C(Br)/C(=C/Br)O1", "inhibition / %": 24}
{"Compound": "COc1ccc(/C=C/C(=O)Nc2ccc(CC3=CC(=O)OC3=C(Br)Br)cc2)cc1", "inhibition / %": 12.9}
{"Compound": "O=C(Cc1c(Cl)cccc1Cl)Nc1ccc(CC2=CC(=O)OC2=CBr)cc1", "inhibition / %": 15.2}
{"Compound": "O=C(Cc1ccc(F)cc1)Nc1ccc(CC2=CC(=O)OC2=C(Br)Br)cc1", "inhibition / %": 15.9}
{"Compound": "O=C(Cc1ccc(Br)cc1)Nc1ccc(CC2=CC(=O)OC2=CBr)cc1", "inhibition / %": 17.2}
{"Compound": "O=C(Cc1ccc(F)cc1)Nc1ccc(CC2=CC(=O)OC2=CBr)cc1", "inhibition / %": 14.7}
{"Compound": "CN(CCOc1ccc(CC2SC(=O)NC2=O)cc1)c1ccccn1 (stereo unspecified) [ROSIGLITAZONE]", "inhibition / %": 15.5}
{"Compound": "O=C(/C=C/c1ccccc1)Nc1ccc(CC2=CC(=O)OC2=C(Br)Br)cc1", "inhibition / %": 18.1}
{"Compound": "O=C1C=C(Cc2ccc(NC(=O)c3cccs3)cc2)C(=C(Br)Br)O1", "inhibition / %": 19.6}
{"Compound": "O=C(Cc1ccc(Br)cc1)Nc1ccc(CC2=CC(=O)OC2=C(Br)Br)cc1", "inhibition / %": 20}
{"Compound": "O=C(Cc1c(Cl)cccc1Cl)Nc1ccc(CC2=CC(=O)OC2=C(Br)Br)cc1", "inhibition / %": 19.2}
{"Compound": "O=C1C=C(Cc2ccc(NC(=O)c3ccccc3)cc2)C(=CBr)O1", "inhibition / %": 17.2}
{"Compound": "O=C(Cc1ccccc1)Nc1ccc(CC2=CC(=O)OC2=CBr)cc1", "inhibition / %": 17.3}
{"Compound": "COc1ccc(C=CC(=O)Nc2ccc(CC3=CC(=O)O/C3=C/Br)cc2)cc1", "inhibition / %": 10.6}
{"Compound": "COc1ccc(CC(=O)Nc2ccc(CC3=CC(=O)OC3=CBr)cc2)cc1", "inhibition / %": 11.8}
{"Compound": "COc1cc(CC(=O)Nc2ccc(CC3=CC(=O)OC3=C(Br)Br)cc2)cc(OC)c1OC", "inhibition / %": 7.66}
{"Compound": "O=C(Cc1ccccc1)Nc1ccc(CC2=CC(=O)OC2=C(Br)Br)cc1", "inhibition / %": 19.2}

----------
Recorded inhibition by entry
- Target system: Elastase (Pseudomonas aeruginosa (strain ATCC 15692 / PAO1 / 1C / PRS 101 / LMG12228)) (UniProt P14756)
- Sequence (P14756 198-498 limits assumed): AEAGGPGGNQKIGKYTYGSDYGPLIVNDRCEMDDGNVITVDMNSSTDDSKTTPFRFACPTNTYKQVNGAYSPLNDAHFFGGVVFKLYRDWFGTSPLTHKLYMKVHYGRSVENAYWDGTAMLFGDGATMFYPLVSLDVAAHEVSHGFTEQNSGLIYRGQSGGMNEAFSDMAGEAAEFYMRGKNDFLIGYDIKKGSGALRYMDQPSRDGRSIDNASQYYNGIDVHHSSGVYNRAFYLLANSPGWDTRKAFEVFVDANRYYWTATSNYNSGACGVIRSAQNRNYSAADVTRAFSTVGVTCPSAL
- Protocol notes: Inhibition of Pseudomonas aeruginosa PAO1 GFP-fused quorum sensing lasB at 10 uM measured every 15 mins up to 12 hrs by GFP reporter gene assay relative to control

{"Molecule": "COc1ccc(C=CC(=O)Nc2ccc(CC3=CC(=O)O/C3=C/Br)cc2)cc1", "inhibition [%]": 12.2}
{"Molecule": "CN(CCOc1ccc(CC2SC(=O)NC2=O)cc1)c1ccccn1 (stereo not given)", "inhibition [%]": 7.43}
{"Molecule": "O=C1C=C(Cc2ccc(NC(=O)c3ccco3)cc2)C(=C(Br)Br)O1", "inhibition [%]": 22.9}
{"Molecule": "O=C1C=C(Cc2ccc(NC(=O)c3ccccc3)cc2)C(=C(Br)Br)O1", "inhibition [%]": 21.2}
{"Molecule": "O=C(Cc1ccc(F)cc1)Nc1ccc(CC2=CC(=O)OC2=C(Br)Br)cc1", "inhibition [%]": 9.49}
{"Molecule": "O=C(Cc1c(Cl)cccc1Cl)Nc1ccc(CC2=CC(=O)OC2=CBr)cc1", "inhibition [%]": 16.9}
{"Molecule": "COc1ccc(CC(=O)Nc2ccc(CC3=CC(=O)OC3=CBr)cc2)cc1", "inhibition [%]": 14.8}
{"Molecule": "O=C1C=C(Cc2ccc(NC(=O)c3cccs3)cc2)C(=C(Br)Br)O1", "inhibition [%]": 20}
{"Molecule": "O=C1C=C(Cc2ccc(NC(=O)c3ccccc3)cc2)C(=CBr)O1", "inhibition [%]": 16.1}
{"Molecule": "O=C1C=C(Cc2ccc(NC(=O)c3cccs3)cc2)C(=CBr)O1", "inhibition [%]": 10.2}

----------
- Target system: Elastase (Pseudomonas aeruginosa (strain ATCC 15692 / PAO1 / 1C / PRS 101 / LMG12228)) (UniProt P14756)
- Protocol notes: Inhibition of Pseudomonas aeruginosa PAO1 GFP-fused quorum sensing lasB at 10 uM measured every 15 mins up to 12 hrs by GFP reporter gene assay relative to control
Recorded inhibition by entry
Endpoint label: inhibition (%)

{"Mol": "Cc1ccc(CC(=O)Nc2ccc(CC3=CC(=O)OC3=CBr)cc2)cc1", "Endpoint label": "inhibition", "Unit label": "%", "Value measured": 19}
{"Mol": "O=C(CCc1ccccc1)Nc1ccc(CC2=CC(=O)OC2=CBr)cc1", "Endpoint label": "inhibition", "Unit label": "%", "Value measured": 14.9}
{"Mol": "O=C(Cc1ccc(Br)cc1)Nc1ccc(CC2=CC(=O)OC2=CBr)cc1", "Endpoint label": "inhibition", "Unit label": "%", "Value measured": 24.9}
{"Mol": "O=C(C=Cc1ccccc1)Nc1ccc(CC2=CC(=O)O/C2=C/Br)cc1", "Endpoint label": "inhibition", "Unit label": "%", "Value measured": 11.8}
{"Mol": "O=C(Cc1ccccc1)Nc1ccc(CC2=CC(=O)OC2=CBr)cc1", "Endpoint label": "inhibition", "Unit label": "%", "Value measured": 18}
{"Mol": "O=C(Cc1ccccc1)Nc1ccc(CC2=CC(=O)OC2=C(Br)Br)cc1", "Endpoint label": "inhibition", "Unit label": "%", "Value measured": 19.2}

----------
- Target system: Anthranilate--CoA ligase (Pseudomonas aeruginosa (strain ATCC 15692 / DSM 22644 / CIP 104116 /JCM 14847 / LMG 12228 / 1C / PRS 101 / PAO1)) (UniProt Q9I4X3)
- Sequence (Q9I4X3 whole entry, the tested form may be a part): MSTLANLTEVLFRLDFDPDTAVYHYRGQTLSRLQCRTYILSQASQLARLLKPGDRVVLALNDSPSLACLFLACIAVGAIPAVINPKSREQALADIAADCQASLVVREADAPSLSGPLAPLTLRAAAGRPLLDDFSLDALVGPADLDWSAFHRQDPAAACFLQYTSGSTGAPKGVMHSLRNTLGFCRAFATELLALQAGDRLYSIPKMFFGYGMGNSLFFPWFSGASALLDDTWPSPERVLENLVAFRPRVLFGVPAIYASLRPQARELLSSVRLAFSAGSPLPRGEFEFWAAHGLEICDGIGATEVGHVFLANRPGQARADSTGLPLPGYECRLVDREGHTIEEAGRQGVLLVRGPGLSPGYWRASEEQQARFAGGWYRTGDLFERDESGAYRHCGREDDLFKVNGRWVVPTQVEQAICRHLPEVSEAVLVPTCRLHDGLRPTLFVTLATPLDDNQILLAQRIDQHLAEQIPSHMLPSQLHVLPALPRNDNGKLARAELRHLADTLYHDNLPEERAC
- Protocol notes: Inhibition of Pseudomonas aeruginosa PAO1 GFP-fused quorum sensing pqsA at 10 uM measured every 15 mins up to 12 hrs by GFP reporter gene assay relative to control
Endpoint label: inhibition (%)

{"Mol": "O=C(Cc1ccc(F)cc1)Nc1ccc(CC2=CC(=O)OC2=C(Br)Br)cc1", "Endpoint label": "inhibition", "Value measured": 20}
{"Mol": "O=C1C=C(Cc2ccc(NC(=O)c3cccs3)cc2)C(=CBr)O1", "Endpoint label": "inhibition", "Value measured": 20.3}
{"Mol": "O=C1C=C(Cc2ccc(NC(=O)c3ccccc3)cc2)C(=CBr)O1", "Endpoint label": "inhibition", "Value measured": 34.5}
{"Mol": "O=C(Cc1c(Cl)cccc1Cl)Nc1ccc(CC2=CC(=O)OC2=C(Br)Br)cc1", "Endpoint label": "inhibition", "Value measured": 19.3}
{"Mol": "O=C1C=C(Cc2ccc(NC(=O)c3cccs3)cc2)C(=C(Br)Br)O1", "Endpoint label": "inhibition", "Value measured": 26.4}
{"Mol": "O=C1C=C(Cc2ccc(NC(=O)c3ccco3)cc2)C(=CBr)O1", "Endpoint label": "inhibition", "Value measured": 20.4}
{"Mol": "COc1ccc(C=CC(=O)Nc2ccc(CC3=CC(=O)O/C3=C/Br)cc2)cc1", "Endpoint label": "inhibition", "Value measured": 24.3}
{"Mol": "O=C(Cc1ccccc1)Nc1ccc(CC2=CC(=O)OC2=C(Br)Br)cc1", "Endpoint label": "inhibition", "Value measured": 24.8}
{"Mol": "COc1ccc(CC(=O)Nc2ccc(CC3=CC(=O)OC3=CBr)cc2)cc1", "Endpoint label": "inhibition", "Value measured": 26.4}
{"Mol": "O=C(Cc1ccccc1)Nc1ccc(CC2=CC(=O)OC2=CBr)cc1", "Endpoint label": "inhibition", "Value measured": 25.8}
{"Mol": "O=C1C=C(Br)/C(=C/Br)O1", "Endpoint label": "inhibition", "Value measured": 20.2}
{"Mol": "O=C1C=C(Cc2ccc(NC(=O)c3ccccc3)cc2)C(=C(Br)Br)O1", "Endpoint label": "inhibition", "Value measured": 28.2}
